- EXPERIMENTAL DETAILS: qHTS assay to identify small molecule HDAC inhibitors (AID 1259364); also: potency is read from the fitted curve at half-maximal effect;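 also: wild-type HCT-116 cells with endogenous class I/II HDAC activity; nearly all actives have a fitted effect of over 45% in size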
- MEASUREMENT CONDITIONS: HCT-116 HDAC-Glo I/II luminescence, 2 h; series mostly up to 92.4 µM
Records with an inconclusive call do not appear. Calls of active or inactive are those of the source. Calls follow the shape of the dose curve; as a rule, active = well fitted inhibition curve with a large enough effect in the repeat runs; inconclusive = weak or mixed curves; inactive = flat fitted curve, though single readings scatter.
MEASURE NAME: Potency

compound=CCCC(=O)OC[C@@H](OC(=O)CCC)[C@@H](OC(=O)CCC)[C@H](Cn1c2nc(=O)[nH]c(=O)c-2nc2cc(C)c(C)cc21)OC(=O)CCC value_observed=inactive
compound=On1ccccc1=S value_observed="12.1 µM (active)"
compound=Cc1onc(-c2ccccc2Cl)c1C(=O)N[C@@H]1C(=O)N2[C@@H]1SC(C)(C)[C@@H]2C(=O)O value_observed=inactive
compound=CO[Si](CCCNc1ccccc1)(OC)OC value_observed=inactive

Using known records, supply Potency for CCCCCCCCS(=O)C(C)Cc1ccc2c(c1)OCO2 (stereo not given)
inactive

###

- EXPERIMENTAL DETAILS: Caspase-3/7 induction in CHO-K1 cells by small molecules, qHTS cell viability counter screen (AID 1346979); also: nearly all actives have a fitted effect of over 35% in size
- MEASUREMENT CONDITIONS: CellTiter-Fluor fluorescence, 17 h; series mostly up to 92.4 µM
Inconclusive results are not listed. Activity calls are given as the source filed them. The call rests on the fitted dose curve; in most records, active means well fitted cell-killing curve with a large enough effect in the repeat runs; inconclusive means weak or mixed curves, or effect the other way; inactive means no such curve, though single readings can be large or run the other way.
The reply should name one outcome from active, inactive

molecule="Oc1ccc(C2(c3ccc(O)cc3)CC3CC2C2CCCC32)cc1 (stereo not given)" label_value=active
molecule=NC(=O)C1(N2CCCCC2)CCN(CCCN2c3ccccc3CCc3ccc(Cl)cc32)CC1 label_value=active
molecule=CCN1/C(=C/C=C/c2sc3ccccc3[n+]2CC)Sc2ccccc21 label_value=active
molecule=Clc1ccc2n[nH]nc2c1 label_value=inactive

Test call, this molecule: "NC(=O)CC[C@@H]1NC(=O)[C@H](Cc2ccccc2)NC(=O)[C@H](Cc2ccc(O)cc2)NC(=O)CCSSC[C@@H](C(=O)N2CCC[C@H]2C(=O)N[C@@H](CCCN=C(N)N)C(=O)NCC(N)=O)NC(=O)[C@H](CC(N)=O)NC1=O"
inactive

Test call, this molecule: "CCCCCCCCCCC=O"
inactive

###

- SUBJECT OF TEST: Aryl hydrocarbon receptor (Homo sapiens)
- EXPERIMENTAL DETAILS: qHTS assay to identify small molecule that activate the aryl hydrocarbon receptor (AhR) signaling pathway (AID 743085); also: nearly all actives have a fitted effect of over 15% in size;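 as to activation: HG2L7.5c1 human HepG2 liver cells with stably integrated DRE-driven firefly reporter; % is scaled to controls: 0 for no effect and ±100 for the full control effect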
- MEASUREMENT CONDITIONS: HepG2 AhR-luc (HG2L7.5c1), luciferase, 24 h; series mostly up to 70.3 µM
Records with an inconclusive call do not appear. The source made the active and inactive calls. The call rests on the fitted dose curve; in most records, active means well fitted activation curve with a large enough effect in the repeat runs; inconclusive means weak or mixed curves; inactive means no such curve, though single readings can be large or run the other way.
The reply should name one outcome from active, inactive

Below, 5 compounds whose answers are already recorded.
compound=C=CC(=O)OCCn1c(=O)n(CCOC(=O)C=C)c(=O)n(CCOC(=O)C=C)c1=O label_value=inactive
compound=O=C(OCC(COC(=O)c1ccccc1)(COC(=O)c1ccccc1)COC(=O)c1ccccc1)c1ccccc1 label_value=inactive
compound="Cc1nc(-c2ccc3c(c2)CCN(CCC2CCC(NC(=O)/C=C/c4ccc(F)cc4)CC2)CC3)no1 (configuration not stated)" label_value=inactive
compound=COc1ccc(-c2ccc3cc(C(=O)O)ccc3c2)cc1C12CC3CC(CC(C3)C1)C2 label_value=inactive
compound=O=C1CCCc2c1cc1ccc3cccc4ccc2c1c34 label_value=active

Test call, this compound: "O=C1C=CC(=O)N1"
inactive

Test call, this compound: "NNC(=O)c1cccc(C(=O)NN)c1"
active

###

- EXPERIMENTAL DETAILS: qHTS RealTime-Glo MT Cell Viability Assay in HEK293 cells - 32 hour (AID 1224868); also: nearly all actives have a fitted effect of over 50% in size
- MEASUREMENT CONDITIONS: RealTime-Glo luminescence; series mostly up to 76.8 µM
Results filed as inconclusive are left out. Active and inactive are the calls of the source. Calls follow the shape of the dose curve; as a rule, active = well fitted cell-killing curve with a large enough effect in the repeat runs; inconclusive = weak or mixed curves, or effect the other way; inactive = flat fitted curve, though single readings scatter.
The reply should name one outcome from active, inactive

chem_smiles=NC(=O)C1(N2CCCCC2)CCN(CCCN2c3ccccc3CCc3ccc(Cl)cc32)CC1 label_value=active
chem_smiles=Clc1ccc2nsnc2c1NC1=NCCN1 label_value=inactive
chem_smiles=O=C(O)c1c(Cl)cccc1Cl label_value=inactive

Test call, this molecule: "CCN(C(=O)c1cc(C)cc(OC[C@H](C)Nc2ccncc2)c1)C(C)C"
inactive

###

- SUBJECT OF TEST: Peroxisome proliferator-activated receptor delta (Homo sapiens) (UniProt Q03181)
- Sequence (Q03181 whole entry, looked up): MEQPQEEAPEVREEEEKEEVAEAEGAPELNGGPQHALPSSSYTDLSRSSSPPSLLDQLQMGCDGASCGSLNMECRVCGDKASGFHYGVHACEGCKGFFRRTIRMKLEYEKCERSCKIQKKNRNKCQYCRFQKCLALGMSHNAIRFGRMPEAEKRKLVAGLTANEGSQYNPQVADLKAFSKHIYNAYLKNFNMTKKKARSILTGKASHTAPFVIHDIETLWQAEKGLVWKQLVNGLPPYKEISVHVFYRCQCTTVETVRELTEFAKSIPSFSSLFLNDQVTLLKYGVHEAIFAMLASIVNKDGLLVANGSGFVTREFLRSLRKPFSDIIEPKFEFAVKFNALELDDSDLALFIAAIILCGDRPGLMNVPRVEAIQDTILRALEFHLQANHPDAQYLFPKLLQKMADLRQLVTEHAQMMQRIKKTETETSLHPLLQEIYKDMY
- EXPERIMENTAL DETAILS: qHTS assay to identify small molecule antagonists of the peroxisome proliferator-activated receptor delta (PPARd) signaling pathway (AID 743215);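 also: cells stimulated with agonist L165041 at 300 nM final during compound exposure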
- MEASUREMENT CONDITIONS: HEK293H PPARd-UAS-bla, beta-lactamase FRET ratio, antagonist, 17 h; series mostly up to 62 µM
Results filed as inconclusive are left out. Active and inactive are the calls of the source. Calls come from the whole dose curve; as a rule, active = well fitted inhibition curve with a large enough effect in the signal ratio in the repeat runs (not every such curve was filed as active); inconclusive = weak or mixed curves, or effect the other way; inactive = no such curve, though single readings can be large or run the other way; the % refers to the signal ratio.
The reply should name one outcome from active, inactive

compound=O=C(Oc1ccccc1)c1ccccc1C(=O)Oc1ccccc1 label_value=inactive
compound=OC1(c2ccc(Cl)c(C(F)(F)F)c2)CCN(CCCC(c2ccc(F)cc2)c2ccc(F)cc2)CC1 label_value=active
compound=O=Cc1cc(O)ccc1Br label_value=inactive
compound="CC(C)OC(=O)c1cc2c(OCC(O)CNC(C)(C)C)cccc2[nH]1 (stereo not given)" label_value=inactive

Next up:
Test call, this compound: "Cc1cccc(S(=O)(=O)O)c1C"
inactive

###

- EXPERIMENTAL DETAILS: qHTS assay to identify small molecule antagonists of the progesterone receptor (PR) signaling pathway - cell viability counter screen (AID 1346798); also: nearly all actives have a fitted effect of over 50% in size
- MEASUREMENT CONDITIONS: PR-UAS-bla HEK293T viability, CellTiter-Glo luminescence, 16 h; series mostly up to 92.4 µM
Inconclusive results are not listed. The source made the active and inactive calls. Calls follow the shape of the dose curve; as a rule, active = well fitted cell-killing curve with a large enough effect in the repeat runs; inconclusive = weak or mixed curves, or effect the other way; inactive = no such curve, though single readings can be large or run the other way.
The reply should name one outcome from YES = active, NO = inactive

chem_smiles=CCOC(=O)O[C@H](C)OC(=O)c1ccc2c(c1)cc(C(=O)NC1CCN(C(C)C)CC1)n2Cc1cc(-c2ccc(Cl)s2)on1 label_value=YES

Test call, this compound: "CNCc1cc(F)ccc1Oc1ccc(Cl)c(Cl)c1"
NO

Test call, this compound: "CNC(=O)c1ccccc1"
NO

###

- EXPERIMENTAL DETAILS: qHTS RealTime-Glo MT Cell Viability Assay in HepG2 cells - 32 hour (AID 1224877); also: % is scaled to controls: 0 for no effect and ±100 for the full control effect; nearly all actives have a fitted effect of over 55% in size
- MEASUREMENT CONDITIONS: RealTime-Glo luminescence; series mostly up to 76.8 µM
Results filed as inconclusive are left out. Active and inactive are the calls of the source. Calls follow the shape of the dose curve; as a rule, active = well fitted cell-killing curve with a large enough effect in the repeat runs; inconclusive = weak or mixed curves; inactive = flat fitted curve, though single readings scatter.
The reply should name one outcome from true (1) = active, false (0) = inactive

molecule=CN(C)[C@@H]1C(=O)C(C(N)=O)=C(O)[C@@]2(O)C(=O)C3=C(O)c4c(O)ccc(Cl)c4[C@@H](O)[C@H]3C[C@@H]12 label_value="false (0)"

Next up:
Test call, this molecule: "CNC(=O)c1ccccc1"
false (0)

###

- EXPERIMENTAL DETAILS: qHTS assay to identify small molecule agonists of the progesterone receptor (PR) signaling pathway - cell viability counter screen (AID 1346799); also: nearly all actives have a fitted effect of over 45% in size
- MEASUREMENT CONDITIONS: PR-UAS-bla HEK293T viability, CellTiter-Glo luminescence, 16 h; series mostly up to 92.4 µM
Inconclusive results are not listed. Calls of active or inactive are those of the source. The call rests on the fitted dose curve.
The reply should name one outcome from true (1) = active, false (0) = inactive

Below, 2 compounds whose answers are already recorded.
compound="CC(C)(C)C(=O)OCOC(=O)C1N2C(=O)CC2S(=O)(=O)C1(C)C (stereo not drawn)" label_value="false (0)"
compound=O=c1c(-c2ccccc2)c1-c1ccccc1 label_value="false (0)"

Test call, this compound: "CCCCN(CCCC)C(=O)N(CCCC)CCCC"
false (0)

Test call, this compound: "CCCCCCCCCCCC[N+](C)(C)CCCCCCCCCCCC"
true (1)

Test call, this compound: "N#CC1(c2ccc(F)cc2)CCC(=O)CC1"
false (0)

Test call, this compound: "CC(C)(C)CC(C)(C)c1ccc(OCCOCC[N+](C)(C)Cc2ccccc2)cc1"
true (1)

Test call, this compound: "CCOC(=O)c1nc(C(Cl)(Cl)Cl)n(-c2ccc(Cl)cc2Cl)n1"
true (1)

Test call, this compound: "CN(C)c1ccc(SC#N)cc1"
false (0)

Test call, this compound: "O=C(O)c1ccc(Cl)c(Cl)c1"
false (0)

###

- SUBJECT OF TEST: Bile acid receptor (Homo sapiens)
- EXPERIMENTAL DETAILS: qHTS assay to identify small molecule antagonists of the farnesoid-X-receptor (FXR) signaling pathway (AID 743217)
- MEASUREMENT CONDITIONS: HEK293T FXR-UAS-bla, beta-lactamase ratio, CDCA-stimulated, 16 h; series mostly up to 62.6 µM
Inconclusive results are not listed. Activity calls are given as the source filed them. The call rests on the fitted dose curve; in most records, active means well fitted inhibition curve with a large enough effect in the signal ratio in the repeat runs (not every such curve was filed as active); inconclusive means weak or mixed curves, or effect the other way; inactive means no such curve, though single readings can be large or run the other way; the % refers to the signal ratio.
The reply should name one outcome from active, inactive

Below, 2 molecules whose answers are already recorded.
molecule=CNC(=O)c1ccccc1 label_value=inactive
molecule=Cc1onc(-c2ccccc2Cl)c1C(=O)N[C@@H]1C(=O)N2[C@@H]1SC(C)(C)[C@@H]2C(=O)O label_value=inactive

Test call, this molecule: "ON=C1CCCC1"
inactive

Test call, this molecule: "Clc1ccc2nsnc2c1NC1=NCCN1"
inactive

Test call, this molecule: "Nc1ccccc1O"
inactive

Test call, this molecule: "Oc1ccc2c(c1)-c1ccccc1C2"
inactive

Test call, this molecule: "CC(=O)N1CCN(c2ccc(OC[C@H]3CO[C@](Cn4ccnc4)(c4ccc(Cl)cc4Cl)O3)cc2)CC1"
active

Test call, this molecule: "O=C(c1ccc(O)cc1O)c1ccc(O)cc1O"
inactive

Test call, this molecule: "O=Cc1cc(O)ccc1Br"
inactive

Test call, this molecule: "Cn1cc(C(=O)[C@@H]2CCc3nc[nH]c3C2)c2ccccc21"
inactive

Test call, this molecule: "Cc1ccc(-n2nc(C(C)(C)C)cc2NC(=O)Nc2ccc(OCCN3CCOCC3)c3ccccc23)cc1"
active

Test call, this molecule: "C[C@H]1[C@H]2CC[C@H]3[C@@H]4CC=C5C[C@@H](N(C)C)CC[C@]5(C)[C@H]4CC[C@]23CN1C"
inactive

Test call, this molecule: "Oc1cccc2cc3cccc(O)c3c(O)c12"
inactive
